- TEST PROTOCOL: Vasorelaxant activity in bovine coronary artery assessed as reduction of U46619-induced contraction at 10 uM
- Assay type: functional, Bos taurus
- Design: scale not given: the % may be the effect or the level left
Sorting guide: entries reporting Activity beneath 90% go in the Y pile, the rest go in the N pile.

compound=CCCCNC(=O)C(=O)NCCCC/C=C\CCCCCCc1noc(=S)[nH]1 category_label=N
compound=CCCCCNC(=O)NCCCC/C=C\CCCCCCc1nnn[nH]1 category_label=N
compound=CCCCCNC(=O)NCCCC/C=C\CCCCOCC(=O)O category_label=Y
compound=CCCCCNC(=O)NCCCC/C=C\CCCCCCc1noc(=S)[nH]1 category_label=N
compound="CCCCCNC(=O)NCCCC/C=C\\CCCCCCC1=NOS(=O)N1 (stereo not given)" category_label=N
compound="CCCCCC1OC1C/C=C\\C/C=C\\C/C=C\\CCCC(=O)O (stereo not given)" category_label=Y
compound=CCCCCNC(=O)NCCCC/C=C\CCCCCCC(=O)OCCOCCOCCO category_label=Y
compound=CCCCCNC(=O)NCCCC/C=C\CCCCCCCc1nnn[nH]1 category_label=N
compound=CCCCNC(=O)C(=O)NCCCC/C=C\CCCCCCc1nnn[nH]1 category_label=N
compound=CCCCCCC(=O)N(CCCC/C=C\CCCCCCc1nnn[nH]1)C(C)C category_label=Y
compound=CCCCCNC(=O)NCCCC/C=C\CCCCCCC(=O)NS(=O)(=O)c1ccccc1 category_label=Y
compound=CCCCCNC(=O)NCCCCCOc1cccc2sc(NC(C)=O)nc12 category_label=Y
compound=CCCCCCC(=O)N(CCCC/C=C\CCCCCCC(=O)OCCOCCOCCO)C(C)C category_label=Y
compound=CCCCNC(=O)C(=O)NCCCCCOc1cccc2sc(NC(C)=O)nc12 category_label=N
compound=CCCCCCC(=O)N(CCCC/C=C\CCCCCCC(=O)NCC(=O)O)C(C)C category_label=N
compound="CCCCCCC(=O)N(CCCC/C=C\\CCCCCCC1=NOS(=O)N1)C(C)C (stereo not given)" category_label=N
compound=CCCCCNC(=O)NCCCC/C=C\CCCCCCP(=O)([O-])[O-].[Na+].[Na+] category_label=Y
compound=CCCCCCC(=O)N(CCCCCOc1cccc2sc(NC(C)=O)nc12)C(C)C category_label=N
compound=CCCCCNC(=O)NCCCC/C=C\CCCCCCC(=O)NS(C)(=O)=O category_label=Y
compound=CCCCCNC(=O)NCCCC/C=C\CCCCCCS(=O)(=O)[O-].[Na+] category_label=Y
compound=CCCCNC(=O)C(=O)NCCCC/C=C\CCCCCCC(=O)OCCOCCOCCO category_label=N
compound=CCCCCNC(=O)NCCCC/C=C\CCCCCCc1nsc(=O)[nH]1 category_label=Y

---

- TEST PROTOCOL: Vasorelaxant activity in bovine coronary artery assessed as reduction of U46619-induced contraction at 10 uM
- Type: functional, Bos taurus
- Design: scale not given: the % may be the effect or the level left
Listing of entries alongside the reported Activity.
OBSERVATION TYPE: Activity (%)

given_smiles=CCCCCNC(=O)NCCCC/C=C\CCCCCCC(=O)N[C@@H](CC(=O)[O-])C(=O)[O-].[Na+].[Na+] reported_result=91
given_smiles=CCCCCN(C)C(=O)N(C)CCCC/C=C\CCCCCCC(=O)NCC(=O)O reported_result=92
given_smiles=CCCCCNC(=O)NCCCC/C=C\CCCCCCc1noc(=O)[nH]1 reported_result=89
